FYI, the data here is from PubChem BioAssay (NCI).

- Tested on: SK-MEL-28 melanoma
- assay-comment: NCI-60 one-dose screen, 48 h (100 = growth as untreated, 0 = no growth, -100 = all killed)
- applied-conditions: 10 µM unless noted
Compounds without any hit were thinned out: in the full panel of roughly 83,000, 20% have a hit.
property-name: growth (%)
Answer format: numeric, % implied, no suffix.

In: Form field - read-out: growth; system: SK-MEL-28 melanoma; submitted item: `O=C(CSc1nc2sc3c(c2c(=O)n1-c1ccccc1)CCCCC3)N/N=C/c1ccc(F)cc1`
Out: 48.9

In: And for `COc1ccc(-c2nc3c(c(-c4ccccc4)nn3-c3ccccc3)c(-c3ccc(N4CCOCC4)cc3)c2C#N)cc1` ?
Out: 100

In: And for `Cc1ccc(CNc2ccc(Cl)cc2NCc2ccc(C)c(O)c2)cc1O` ?
Out: 31.9

In: And for `Cc1ccc2c(n1)C(=O)c1[nH]c3ccccc3c1C2=O` ?
Out: 78.6

In: And for `N#Cc1cnc(NCCc2ccncc2)nc1-n1cnc2ccccc21` ?
Out: 80.9

In: And for CC[C@@H](C(=O)[C@@H](C)[C@@H](O)[C@H](C)[C@@H]1O[C@@H]([C@@H](CC)C(=O)NCCc2ccc(F)cc2)CC[C@@H]1C)C1O[C@]2(C=CC(=O)[C@]3(CC[C@@](C)([C@H]4CC[C@](O)(CC)[C@H](C)O4)O3)O2)[C@H](C)C[C@@H]1C (some centres undefined) ?
Out: 58.2

In: And for `O=C(O)CNC1=C(Cl)C(=O)c2ccccc2C1=O` ?
Out: 113

In: And for `CCN1CC(=O)N(/N=C2\C(=O)Nc3ccccc32)C1=S` ?
Out: 111

In: And for `Cc1ccc(-n2c(=S)[nH]c3sc4c(c3c2=O)CCC(=O)C4)cc1` ?
Out: 53

----------
- Test system: DU-145 prostate
- assay-comment: NCI-60 one-dose screen, 48 h
- applied-conditions: 10 µM unless noted
- Procedure: Cells are grown in 96 well plates and exposed to the test compound for 48 hours. Compounds are tested at a single concentration, which is 10^-5 M for most compounds. The reported endpoint is percent growth (GI% or GIPRCNT), where numbers from 0 - 100% represent growth inhibition, and numbers from -100% - 0 represent cell death. For example, a value of 40 represents 60% growth inhibition. A value of 0 means no net growth occurred over the course of the experiment. […]
The panel holds about 83,000 compounds, 20% with a hit somewhere; the sample as a whole holds those more often. Calls of active or inactive are those of the source. The calls were made as follows: active = growth percent below 10; inactive = the rest.
Give one outcome, nothing more. List: active, inactive

In: // outcome(item) with item = O=C(CI)NC1Oc2ccccc2-c2oc(=O)c(-c3ccccc3)cc21 (stereo not drawn)
Out: active

In: And for `C=CCn1c(SCC(=O)Nc2ccc(C(=O)/C=C/c3cc4cc(OC)ccc4nc3Cl)cc2)nnc1-c1ccc(Br)cc1` ?
Out: inactive

In: And for COC(C(=O)[C@@H](O)[C@@H](C)O)[C@@H]1Cc2cc3cc(O[C@H]4C[C@@H](O[C@H]5C[C@@H](O)[C@H](O)C(C)O5)[C@H](O)C(C)O4)cc(O)c3c(O)c2C(=O)[C@H]1O[C@H]1C[C@@H](O[C@H]2C[C@@H](O[C@H]3C[C@@H](OC)[C@H](O)C(C)O3)[C@@H](O)C(C)O2)[C@H](O)C(C)O1 (stereo partly drawn) ?
Out: inactive

----------
- Test system: K-562 leukemia
- assay-comment: NCI-60 one-dose screen, 48 h (100 = growth as untreated, 0 = no growth, -100 = all killed)
- applied-conditions: 10 µM unless noted
This is part of a sample that, as a whole, favours compounds with a hit. Of some 83,000 tested, about 20% had one in any assay. Active and inactive are the calls of the source. The calls were made as follows: active = growth percent below 10; inactive = the rest.
Assignment: determine reported growth for the given compounds.

In: Find the recorded growth belonging to `N#C/C(=C/c1ccc([N+](=O)[O-])cc1)n1nnc2cc(F)c(F)cc21` and report it.
Out: 13.9% (inactive)

In: And for `C=C1C(=O)O[C@H]2[C@H]1CC/C(COC(=O)CSCCSCC(=O)OC/C1=C/CC[C@@]3(C)O[C@H]3[C@H]3OC(=O)C(=C)[C@@H]3CC1)=C\CC[C@@]1(C)O[C@@H]21` ?
Out: 1.81% (active)

In: And for `Clc1ccc(Nc2nnc(COc3ccccc3)c3ccccc23)cc1` ?
Out: 2.77% (active)

In: And for `O=C1/C(=C/c2ccc(F)cc2)COc2ccc(O)c(O)c21` ?
Out: 10.6% (inactive)

In: And for `O=C(Cn1c(=O)sc2ccccc21)NNS(=O)(=O)c1ccccc1[N+](=O)[O-]` ?
Out: 98.9% (inactive)

In: And for `C=C(C)[C@@H]1CC[C@]2(C(=O)OC)CC[C@]3(C)[C@H](CC[C@@H]4[C@@]5(C)C/C(=C/NC(N)=S)C(=O)C(C)(C)[C@@H]5CC[C@]43C)[C@@H]12` ?
Out: 73.6% (inactive)

In: And for CC(=O)N1N=C(c2ccc(Nc3nc(Nc4ccc(Cl)cc4)nc(Nc4ccc(Cl)cc4)n3)cc2)CC1c1ccco1 (configuration not stated) ?
Out: 79.5% (inactive)

In: And for `COc1ccc2cc(-c3ccc(NC(C)=O)c(=O)o3)ccc2c1` ?
Out: 81.4% (inactive)

In: And for `Oc1c(Cl)cc(Cl)c2ccc(Cn3cc(-c4cc(F)cc(F)c4)nn3)nc12` ?
Out: 7.96% (active)

In: And for `O=C1C(Cl)=C(Nc2ccc(O)cc2)C(=O)N1Cc1ccc(Cl)cc1` ?
Out: 11.9% (inactive)

In: And for `O=C(Cn1cc(CN2CCCCCC2)nn1)Nc1ccc2c(ccn2Cc2ccccc2)c1` ?
Out: 79.5% (inactive)

In: And for CNc1nc(S(=O)c2ccc(C#N)cc2)nc2ccccc12 (configuration not stated) ?
Out: 24.9% (inactive)

In: And for `C=C(C)[C@@H]1CC[C@]2(C(=O)O)CC[C@]3(C)[C@H](CC[C@@H]4[C@@]5(C)C[C@@H](Cc6cn(CCO[C@@H]7O[C@H](COC(C)=O)[C@H](OC(C)=O)[C@H](OC(C)=O)[C@H]7OC(C)=O)nn6)[C@H](O)C(C)(C)[C@@H]5CC[C@]43C)[C@@H]12` ?
Out: 53% (inactive)

In: And for `COc1ccc(OC)c(C(=O)/C=C/c2cc3c(c(OC)c2OC)OCO3)c1` ?
Out: 29.7% (inactive)

In: And for `O=C(c1cc2ccccc2o1)c1nn(-c2ccccc2)/c(=N/N=Cc2cn(-c3ccccc3)nc2-c2cc3ccccc3oc2=O)s1` ?
Out: 78.2% (inactive)

In: And for N#CC1=C(c2ccc(Cl)cc2)Nc2c(c(-c3ccc(Cl)cc3)nn2-c2ccccc2)C12C(=O)Nc1ccc(Cl)cc12 (configuration not stated) ?
Out: 24.3% (inactive)

In: And for `Cc1ccccc1NC(=O)c1sc2nc(C)c(C(=O)/C=C/c3ccccc3)cc2c1N` ?
Out: 13% (inactive)

In: And for `O=c1c2cc(-c3ccccc3)sc2nc2sc(-c3ccccc3)nn12` ?
Out: 93.8% (inactive)

In: And for `O=[N+]([O-])/C(=C/C=C/c1ccccc1)c1ccccc1` ?
Out: 24.4% (inactive)

In: And for `C=CCc1c2c(c(OC)c3ccoc13)C(=O)/C(=C/c1ccccc1OC)O2` ?
Out: 49.5% (inactive)

In: And for `COc1ccc(N2CCC(=O)NC2=S)cc1` ?
Out: 107% (inactive)

In: And for `Oc1ccc(CN2CCC(N3CCCCC3)CC2)c2cccnc12` ?
Out: 15.8% (inactive)

In: And for `COc1cc(-c2nc3cc(Cl)c(Cl)cc3[nH]2)ccc1OCC(=O)N=Nc1c(O)[nH]c2ccc([N+](=O)[O-])cc12` ?
Out: 46.1% (inactive)

In: And for `CCN(CC)c1nc(SCc2ccccc2Cl)ncc1C` ?
Out: 97.7% (inactive)

In: And for `O=C(Nc1cc(Cl)ccc1O)c1ccc(Nc2ccnc(C(F)(F)F)c2)cc1` ?
Out: 5.89% (active)

In: And for `O=C1c2c(c3c4ccccc4[nH]c3c3ccc4ccccc4c23)C(=O)N1CCN1CCCCC1` ?
Out: -7.75% (active)

In: And for CCO/C=N/C1=C(C#N)C(c2ccc(OC)cc2)c2sc3c(F)cccc3c2O1 (configuration not stated) ?
Out: 15.1% (inactive)

In: And for `O=C(Cn1cc(CN2C(=O)c3ccccc3S2(=O)=O)nn1)Nc1nc2ccccc2s1` ?
Out: 101% (inactive)

In: And for COc1ccc(/C=C2\C(=O)N=C3N2NC(c2cc(Br)ccc2O)C=C(C)N3c2ccccc2)cc1 (configuration not stated) ?
Out: 97.3% (inactive)

In: And for CCN1C(=O)N(CC)C2C1NN=c1s/c(=C\c3cccc([N+](=O)[O-])c3)c(=O)n12 (configuration not stated) ?
Out: 10.5% (inactive)

In: And for `COc1ccccc1NC(=O)Cn1cc(CN2CCN(c3ccnc4cc(Cl)ccc34)CC2)nn1` ?
Out: 83.8% (inactive)

In: And for `N=C(N)c1ccc(-c2ccc(-c3ccc(Cl)cc3)s2)nc1` ?
Out: -45.1% (active)

In: And for `Oc1c(Cl)cc(Cl)c2ccc(Cn3cc(-c4cc(C(F)(F)F)cc(C(F)(F)F)c4)nn3)nc12` ?
Out: 6.87% (active)

In: And for `C#CCOc1cccc(Nc2ncnc3c(NC(=O)C=C)cccc23)c1` ?
Out: 5% (active)

In: And for `Cn1c(-c2ccc(Br)cc2)c(O)c(=O)c2c(F)cccc21` ?
Out: 100% (inactive)

In: And for `C/C(=N\NC(=O)c1ccccc1O)c1cccc(/C(C)=N/NC(=O)c2ccccc2O)n1` ?
Out: 57.2% (inactive)

In: And for `N#Cc1c(N)nnn1Cc1cc(=O)oc2c1ccc1ccccc12` ?
Out: 93.6% (inactive)
